- Assay details: qHTS assay to identify small molecule agonists of the estrogen related receptor (ERR) signaling pathway (AID 1224820)
- Condition: ERR reporter cell line, luciferase agonist mode; series mostly up to 46.1 µM
Records with an inconclusive call do not appear. Calls of active or inactive are those of the source. The call rests on the fitted dose curve; in most records, active means well fitted activation curve with a large enough effect in the repeat runs; inconclusive means weak or mixed curves; inactive means no such curve, though single readings can be large or run the other way.
Returns: one label drawn from label 1 = active, label 0 = inactive

{"Compound": "O=C1NC(=O)/C(=C/c2ccc3nccnc3c2)S1", "Class assignment": "label 0"}

Q. Please let me know the test result on file for N=C(N)c1ccc(OCCCCCOc2ccc(C(=N)N)cc2)cc1 (tested in a mixture with another compound) .
A. label 0

Q. Please let me know the test result on file for CC(C)(C)c1ccc(/C=C/C(=O)Nc2ccc3c(c2)OCCO3)cc1 .
A. label 0

Q. Please let me know the test result on file for O=C(Nc1ccc2[nH]ncc2c1)C1CCC1 .
A. label 1

Q. Please let me know the test result on file for CN1CC(O)C(O)C(O)C1CO (stereo not given) .
A. label 0

Q. Please let me know the test result on file for N[C@H](C(=O)O)c1cc(O)cc(O)c1 .
A. label 0
